test: cytotoxicity (TC50) accompanying the CPE assay; type: cell-based; details: human, Hep-2 cells; read-out: TC50
endpoint name: CC50 at 24 h

// query GET /values?readout=CC50 at 24 h&item= NC(=O)c1ncn([C@@H]2O[C@H](CO)[C@@H](O)[C@H]2O)n1 [Ribavirin, reference compound]
// result > 10 mM
